test system: biotinyl-Leu-oxazolone; experiment: self-aminoacylation, catalytic enhancement (BLO) (fold over background); higher = more active; k-Seq, kA / k0A0; sequences stand for … in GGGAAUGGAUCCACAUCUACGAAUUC…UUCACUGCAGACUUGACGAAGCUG
Fewer inactive variants are shown than the library holds.
measured.property: self-aminoacylation

Examples with answers:
# query: self-aminoacylation of entry AAUCUCCUAGGUCAUCGGGUG [Fam2.2 aminoacylation ribozyme variant]
6.83

Now the same for CUACUUCAAAUAAUCGGCCUG [Fam1A.1 aminoacylation ribozyme variant]
1.36

Give me self-aminoacylation for each of these sequences, listed below.
1. CUGCUUCAAACAAUCGCUCUG [Fam1A.1 aminoacylation ribozyme variant]
2. CUACUUGAUACAAUCGGUCUG [Fam1A.1 aminoacylation ribozyme variant]

[0.984, 0.734]
